Reference source: ChEMBL document CHEMBL3797125

TEST: Lipophilicity, logD of the compound at pH 7.4
Assay type: physicochemical
REPORTED_CONDITIONS: buffer
METRIC: logD

[in] Answer with the recorded logD of `CCN(Cc1cc(=O)n2nc(C)sc2n1)c1ccc(F)cc1` only.
[out] 2.9

###

MEASURED_ON: Glutamate receptor 2 (Homo sapiens)
TEST: Positive allosteric modulation of human GluA2 AMPAR flip isomer expressed in Dox-inducible cells measured every 5 mins by BD calcium indicator dye based-fluorescence analysis in presence of glutamate
Assay type: cell-based
Each item that follows carries a reported EC50.

[in] Answer with the recorded EC50 of Cc1sc2nc(Cc3cccc(C#N)c3F)cc(=O)n2c1C1CC1CO (racemic) only.
[out] 32.6 µM

[in] Answer with the recorded EC50 of `Cc1sc2nc(COc3ccc(F)cc3)cc(=O)n2c1[C@@H]1C[C@H]1CO` only.
[out] 5.4 µM

[in] Answer with the recorded EC50 of `CCN(Cc1cc(=O)n2c(CO)c(C)sc2n1)c1ccc(F)cc1` only.
[out] 66.3 µM

[in] Answer with the recorded EC50 of `C=C(C)c1c(C)sc2nc(CN(CC)c3ccc(F)cc3)cc(=O)n12` only.
[out] 43.1 µM

[in] Answer with the recorded EC50 of CCN(Cc1cc(=O)n2c(C(C)O)c(C)sc2n1)c1ccc(F)cc1 (racemic) only.
[out] 32.3 µM

---
[in] Answer with the recorded EC50 of `O=c1cc(Cn2nc(C(F)(F)F)cc2Cl)nc2sc(C(F)(F)F)c([C@@H]3C[C@H]3CO)n12` only.
[out] 36.1 µM

###

MEASURED_ON: Glutamate receptor 2 (Homo sapiens, UniProt P42262)
Sequence (P42262 whole entry): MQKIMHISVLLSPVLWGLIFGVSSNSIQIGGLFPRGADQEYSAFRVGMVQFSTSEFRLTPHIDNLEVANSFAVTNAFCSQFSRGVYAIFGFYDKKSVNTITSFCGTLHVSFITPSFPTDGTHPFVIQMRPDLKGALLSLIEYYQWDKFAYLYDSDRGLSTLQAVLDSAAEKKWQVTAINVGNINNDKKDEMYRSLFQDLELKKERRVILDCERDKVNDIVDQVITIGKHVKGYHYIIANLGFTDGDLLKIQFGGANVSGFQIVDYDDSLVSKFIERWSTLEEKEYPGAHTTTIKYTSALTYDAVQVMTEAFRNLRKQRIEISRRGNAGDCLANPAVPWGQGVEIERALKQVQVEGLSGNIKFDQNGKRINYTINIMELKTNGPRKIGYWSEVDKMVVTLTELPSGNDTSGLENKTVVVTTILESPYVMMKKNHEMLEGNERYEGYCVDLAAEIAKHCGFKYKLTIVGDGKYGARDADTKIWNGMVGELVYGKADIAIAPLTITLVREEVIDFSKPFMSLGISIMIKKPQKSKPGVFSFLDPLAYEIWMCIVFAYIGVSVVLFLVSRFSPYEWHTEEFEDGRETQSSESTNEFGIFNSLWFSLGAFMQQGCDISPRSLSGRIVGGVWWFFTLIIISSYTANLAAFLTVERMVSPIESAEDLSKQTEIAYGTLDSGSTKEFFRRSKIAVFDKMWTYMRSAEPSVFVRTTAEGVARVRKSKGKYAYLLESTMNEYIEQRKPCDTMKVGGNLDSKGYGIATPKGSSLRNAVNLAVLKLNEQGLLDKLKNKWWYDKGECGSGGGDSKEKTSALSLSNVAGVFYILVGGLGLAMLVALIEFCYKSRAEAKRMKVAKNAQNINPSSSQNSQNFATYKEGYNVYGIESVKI
TEST: Positive allosteric modulation of human GluA2 AMPAR flip isomer expressed in Dox-inducible cells at 125 uM measured every 5 mins by BD calcium indicator dye based-fluorescence analysis in presence of glutamate
Type: cell-based
Each item that follows carries a reported %max.
Form entry: value (%) — number only.

[in] Answer with the recorded %max of `CCNC(=O)c1c(C)sc2nc(CN(C)c3ccc(F)cc3)cc(=O)n12` only.
[out] 2

[in] Answer with the recorded %max of `CCN(Cc1cc(=O)n2c(C3CCC3)c(C)sc2n1)c1ccc(F)cc1` only.
[out] 38

[in] Answer with the recorded %max of `CCNC(=O)c1c(C)sc2nc(CNc3ccc(F)cc3)cc(=O)n12` only.
[out] 8

[in] Answer with the recorded %max of `CCNC(=O)c1c(C)sc2nc(Cn3nc(C(F)(F)F)cc3C3CC3)cc(=O)n12` only.
[out] 54

[in] Answer with the recorded %max of `CCNC(=O)c1c(C)sc2nc(CN(CC)c3ccc(F)cc3)cc(=O)n12` only.
[out] 10

---
[in] Answer with the recorded %max of `CCNC(=O)c1c(C)sc2nc(CN(CC)c3ccc(F)cn3)cc(=O)n12` only.
[out] 6

[in] Answer with the recorded %max of `CCN(Cc1cc(=O)n2c(CO)c(C)sc2n1)c1ccc(F)cc1` only.
[out] 39

[in] Answer with the recorded %max of `O=c1cc(Cn2nc(C(F)(F)F)cc2Cl)nc2sc(C(F)(F)F)c([C@@H]3C[C@H]3CO)n12` only.
[out] 66

[in] Answer with the recorded %max of Cc1sc2nc(Cc3cccc(C(F)(F)F)c3F)cc(=O)n2c1C1CC1CO (racemic) only.
[out] 57

[in] Answer with the recorded %max of `CCN(Cc1cc(=O)n2c(N3CCOCC3)c(C)sc2n1)c1ccc(F)cc1` only.
[out] 11

[in] Answer with the recorded %max of `CCNC(=O)c1c(C)sc2nc(Cc3cccc(C#N)c3F)cc(=O)n12` only.
[out] 3

[in] Answer with the recorded %max of `CCN(Cc1cc(=O)n2nc(C)sc2n1)c1ccc(F)cc1` only.
[out] 92

###

Tested on: human MDR1 (P-gp)
TEST: Efflux ratio of permeability from basolateral to apical over apical to basolateral side in MDCK cells expressing human MDR1
Assay type: ADME, cell-based, Canis lupus familiaris
REPORTED_CONDITIONS: dog
Class boundaries, taken from values of efflux ratio, are as follows: band 1 (below 1), band 2 (1 to below 9), band 3 (9 or more)

[in] State the band of `CCN(Cc1cc(=O)n2nc(C)sc2n1)c1ccc(F)cc1`
[out] band 2

[in] State the band of `CCN(Cc1cc(=O)n2c(CCO)c(C)sc2n1)c1ccc(F)cc1`
[out] band 1

[in] State the band of `CCNC(=O)c1c(C)sc2nc(Cn3nc(C(F)(F)F)cc3C)cc(=O)n12`
[out] band 3

[in] State the band of `CCN(Cc1cc(=O)n2c(C3CC3)c(C)sc2n1)c1ccc(F)cc1`
[out] band 1

---
[in] State the band of `CCNC(=O)c1c(C)sc2nc(Cc3cccc(C(F)(F)F)c3)cc(=O)n12`
[out] band 3

[in] State the band of `CCNC(=O)c1c(C)sc2nc(CN(C)c3ccc(F)cc3)cc(=O)n12`
[out] band 2

[in] State the band of `CCNC(=O)c1c(C)sc2nc(CN(CC)c3ccc(F)cc3)cc(=O)n12`
[out] band 2

[in] State the band of `CCN(Cc1cc(=O)n2c(-c3cccnc3)c(C)sc2n1)c1ccc(F)cc1`
[out] band 2

[in] State the band of `CCNC(=O)c1c(C)sc2nc(Cc3cccc(C(F)(F)F)c3F)cc(=O)n12`
[out] band 2

[in] State the band of `CCN(Cc1cc(=O)n2c(C(=O)NC)c(C)sc2n1)c1ccc(F)cc1`
[out] band 3

###

MEASURED_ON: Glutamate receptor 2 (Homo sapiens)
TEST: Positive allosteric modulation of human GluA2 AMPAR flop isomer expressed in Dox-inducible cells at 125 uM measured every 5 mins by BD calcium indicator dye based-fluorescence analysis in presence of glutamate
Type: cell-based
Record True whenever %max is at 20% or higher; record False when lower.

Example entries and their recorded answers appear below.
[in] Textbook exercise: given the entry CCN(Cc1cc(=O)n2c(C(C)O)c(C)sc2n1)c1ccc(F)cc1 (racemic) , state whether its %max is greater than or equal to 20%.
[out] True

[in] Textbook exercise: given the entry `CCN(Cc1cc(=O)n2c(C#N)c(C)sc2n1)c1ccc(F)cc1` , state whether its %max is greater than or equal to 20%.
[out] True

[in] Textbook exercise: given the entry `CCN(Cc1cc(=O)n2c(C(C)=O)c(C)sc2n1)c1ccc(F)cc1` , state whether its %max is greater than or equal to 20%.
[out] True

---
[in] Textbook exercise: given the entry CCNC(=O)c1c(C)sc2nc(C(C)c3cccc(C(F)(F)F)c3F)cc(=O)n12 (racemic) , state whether its %max is greater than or equal to 20%.
[out] False

[in] Textbook exercise: given the entry `CCNC(=O)c1c(C)sc2nc(Cn3nc(C(F)(F)F)cc3C)cc(=O)n12` , state whether its %max is greater than or equal to 20%.
[out] False

[in] Textbook exercise: given the entry `CCN(Cc1cc(=O)n2c(CCCO)c(C)sc2n1)c1ccc(F)cc1` , state whether its %max is greater than or equal to 20%.
[out] True

[in] Textbook exercise: given the entry `CCN(Cc1cc(=O)n2c(C3CC3)c(C)sc2n1)c1ccc(F)cc1` , state whether its %max is greater than or equal to 20%.
[out] True

[in] Textbook exercise: given the entry `CCNC(=O)c1c(C)sc2nc(Cn3nc(C(F)(F)F)cc3OCC)cc(=O)n12` , state whether its %max is greater than or equal to 20%.
[out] True

[in] Textbook exercise: given the entry `Cc1sc2nc(Cn3nc(C(F)(F)F)cc3Cl)cc(=O)n2c1[C@@H]1C[C@H]1CO` , state whether its %max is greater than or equal to 20%.
[out] True

[in] Textbook exercise: given the entry `CCN(Cc1cc(=O)n2c(C(=O)NC)c(C)sc2n1)c1ccc(F)cc1` , state whether its %max is greater than or equal to 20%.
[out] True

[in] Textbook exercise: given the entry `CCN(Cc1cc(=O)n2c(N3CCOCC3)c(C)sc2n1)c1ccc(F)cc1` , state whether its %max is greater than or equal to 20%.
[out] False

[in] Textbook exercise: given the entry `CCNC(=O)c1c(C)sc2nc(CN(CC)c3ccc(F)cc3)cc(=O)n12` , state whether its %max is greater than or equal to 20%.
[out] True

[in] Textbook exercise: given the entry `CCN(Cc1cc(=O)n2c(-c3cccnc3)c(C)sc2n1)c1ccc(F)cc1` , state whether its %max is greater than or equal to 20%.
[out] False

[in] Textbook exercise: given the entry `CCCN(Cc1cc(=O)n2c(C(=O)NCC)c(C)sc2n1)c1ccc(F)cc1` , state whether its %max is greater than or equal to 20%.
[out] True

[in] Textbook exercise: given the entry `CCNC(=O)c1c(C)sc2nc(Cn3nc(C(F)(F)F)cc3Cl)cc(=O)n12` , state whether its %max is greater than or equal to 20%.
[out] False

[in] Textbook exercise: given the entry Cc1sc2nc(Cc3cccc(C(F)(F)F)c3F)cc(=O)n2c1C1CC1CO (racemic) , state whether its %max is greater than or equal to 20%.
[out] True

[in] Textbook exercise: given the entry `O=c1cc(Cn2nc(C(F)(F)F)cc2Cl)nc2sc(C(F)(F)F)c([C@@H]3C[C@H]3CO)n12` , state whether its %max is greater than or equal to 20%.
[out] True

[in] Textbook exercise: given the entry `CCNC(=O)c1c(C)sc2nc(CN(CC)c3ccc(F)cn3)cc(=O)n12` , state whether its %max is greater than or equal to 20%.
[out] False

[in] Textbook exercise: given the entry `N#C[C@@H]1C[C@H]1c1c(C(F)(F)F)sc2nc(Cn3nc(C(F)(F)F)cc3Cl)cc(=O)n12` , state whether its %max is greater than or equal to 20%.
[out] True

[in] Textbook exercise: given the entry `CCCCc1nn2c(=O)cc(CN(CC)c3ccccc3)nc2s1` , state whether its %max is greater than or equal to 20%.
[out] True

[in] Textbook exercise: given the entry `CCN(Cc1cc(=O)n2c(C(C)(C)O)c(C)sc2n1)c1ccc(F)cc1` , state whether its %max is greater than or equal to 20%.
[out] False

[in] Textbook exercise: given the entry `CCNC(=O)c1c(C)sc2nc(Cn3nc(C(F)(F)F)cc3C3CC3)cc(=O)n12` , state whether its %max is greater than or equal to 20%.
[out] True
